# System: Echinochloa crus-galli (ECHCG)
# assay summary: Post-emergence herbicidal activity, glasshouse pot test
# Assay type: in vivo
# assay setup: 360 h, rate 125 g/ha, evaluated 15 days later, 100=total damage to plant, 0=no damage to plant
pest or weed control at 125 g/ha by entry:
Report only the number, with the unit % understood.

1) CCc1ccc(-c2ccc(Cl)c(C(F)(F)F)c2)cc1C1=C(O)[C@H]2[C@@H](C1=O)[C@@H]1CC[C@H]2O1: 100
2) Cc1cc(-c2ccccc2)cc(C)c1C1C(=O)[C@H]2[C@@H]3CC[C@@](C)(O3)[C@H]2C1=O (stereo partly drawn): 100
3) CCc1ccc(-c2ccc(Cl)c(F)c2)cc1C1=C(O)[C@H]2[C@@H](C1=O)[C@@H]1CC[C@H]2O1: 100
4) Cc1cc(-c2ccc(C(F)(F)F)cc2)cc(C)c1C1C(=O)[C@@H]2[C@H](C1=O)[C@H]1CC[C@@H]2O1 (stereo partly drawn): 90
5) Cc1cc(-c2ccccc2)cc(C)c1C1=C(OC(=O)C(C)C)[C@H]2[C@@H](C1=O)[C@@H]1CC[C@H]2O1 [Compound P2]: 100

get_value(item= CCc1ccc(-c2ccc(Cl)cc2F)cc1C1=C(O)[C@H]2[C@@H](C1=O)[C@]1(C)CC[C@@]2(C)O1 (racemic) , readout=pest or weed control at 125 g/ha) returns 100
